So I've got a bunch of compounds here, and I need their (% Activity NADPH T0)/(% Activity NADPH T30) values.
- Target Under Test: CYP2D6 (Homo sapiens)
- Construct: Pooled human microsomes and selective CYP probe substrates were used; from tissue; host or cells: pooled human liver microsomes
- Sequence (P10635 whole entry): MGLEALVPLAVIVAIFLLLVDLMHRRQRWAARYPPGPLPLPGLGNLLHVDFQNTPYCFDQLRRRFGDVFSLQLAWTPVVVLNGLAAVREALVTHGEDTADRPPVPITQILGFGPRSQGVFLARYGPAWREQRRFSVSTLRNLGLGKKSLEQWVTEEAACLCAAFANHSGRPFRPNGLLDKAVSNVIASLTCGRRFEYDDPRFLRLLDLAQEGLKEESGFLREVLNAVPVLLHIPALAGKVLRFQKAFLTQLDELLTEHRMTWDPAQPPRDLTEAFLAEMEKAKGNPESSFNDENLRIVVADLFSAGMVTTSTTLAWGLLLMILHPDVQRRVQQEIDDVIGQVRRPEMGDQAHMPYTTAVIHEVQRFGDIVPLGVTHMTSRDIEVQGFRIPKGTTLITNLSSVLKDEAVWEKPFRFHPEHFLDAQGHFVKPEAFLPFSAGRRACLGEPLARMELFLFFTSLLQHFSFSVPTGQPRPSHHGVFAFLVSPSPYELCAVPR
- Experimental Protocol: Time-dependent inhibition of CYP2D6 in human liver microsomes
- Assay type: in vitro ADME
- Condition Set: CYP2D6, 50 μM, fold change
Lab note: record just the number, no unit beside it.

Task: Entry C[C@H]1CC[C@H](N2CC(=O)N(Cc3ccc(F)c(Cl)c3)C3(CN(C(N)=O)C3)C2=O)CC1 has what (% Activity NADPH T0)/(% Activity NADPH T30)?
Result: 0.9

Task: Entry CC(C)N1CC(=O)N(Cc2ccc(Cl)c(F)c2)C2(CN(c3cccnn3)C2)C1=O has what (% Activity NADPH T0)/(% Activity NADPH T30)?
Result: 1.0

Task: Entry C[C@H]1CC[C@H](N2CC(=O)N(Cc3ccc(F)c(F)c3)C3(CN(C=O)C3)C2=O)CC1 has what (% Activity NADPH T0)/(% Activity NADPH T30)?
Result: 1.1

Task: Entry C[C@H]1CC[C@H](N2CC(=O)N(Cc3ccc(F)c(F)c3)C3(CN(C(N)=O)C3)C2=O)CC1 has what (% Activity NADPH T0)/(% Activity NADPH T30)?
Result: 1.1

Task: Entry C[C@H]1CC[C@H](N2CC(=O)N(Cc3ccc(Cl)cc3)C3(CN(C(N)=O)C3)C2=O)CC1 has what (% Activity NADPH T0)/(% Activity NADPH T30)?
Result: 1.1

Task: Entry Cc1cc(CN2C(=O)CN([C@H]3CC[C@H](C)CC3)C(=O)C23CN(C(N)=O)C3)ccc1F has what (% Activity NADPH T0)/(% Activity NADPH T30)?
Result: 1.2

Task: Entry CC(C)N1CC(=O)N(Cc2ccc(C(F)(F)F)cc2)C2(CN(c3cccnn3)C2)C1=O has what (% Activity NADPH T0)/(% Activity NADPH T30)?
Result: 1.4

---

- Experimental Protocol: Projected single-dose CL and Vss values in humans (allometric scaling of mouse, rat, dog, monkey IV PK)
- Condition Set: human, projected by allometric scaling from single-dose IV PK
So basically: Projected Vss at 5 L/kg or higher? That is satisfied. Lower than 5 L/kg? That is not satisfied.

Task: Please tell me: is the molecule CC(=O)N1CC2(C1)C(=O)N(c1ccc(C#N)cc1F)CC(=O)N2Cc1ccc(C(F)(F)F)cc1 [Comparator D] at or over 5 L/kg in terms of Projected Vss?
Result: satisfied

Task: Please tell me: is the molecule O=CN1CC2(C1)C(=O)N([C@H]1CC[C@H](C(F)F)CC1)CC(=O)N2Cc1ccc(C(F)(F)F)cc1 [Comparator E] at or over 5 L/kg in terms of Projected Vss?
Result: satisfied

Task: Please tell me: is the molecule O=C1[C@H](C2COC2)N(Cc2ccc(C(F)(F)F)cc2)C(=O)CN1c1ncc(Cl)cc1F [Comparator C, reference compound] at or over 5 L/kg in terms of Projected Vss?
Result: satisfied

Task: Please tell me: is the molecule CC(C)N1CC(=O)N(Cc2ccc(C(F)(F)F)cc2)C2(CN(c3cccnn3)C2)C1=O [Compound 13] at or over 5 L/kg in terms of Projected Vss?
Result: not satisfied

Task: Please tell me: is the molecule C[C@H]1CC[C@H](N2CC(=O)N(Cc3ccc(F)c(F)c3)C3(CN(C=O)C3)C2=O)CC1 [Compound 4] at or over 5 L/kg in terms of Projected Vss?
Result: not satisfied

Task: Please tell me: is the molecule C[C@H]1CC[C@H](N2CC(=O)N(Cc3ccc(Cl)cc3)C3(CN(C(N)=O)C3)C2=O)CC1 [Compound 18] at or over 5 L/kg in terms of Projected Vss?
Result: satisfied
